Taken from paper PMC6864818.

# Assayed target: xanthine oxidase (Homo sapiens)
# Sequence (P47989 whole entry, species assumed): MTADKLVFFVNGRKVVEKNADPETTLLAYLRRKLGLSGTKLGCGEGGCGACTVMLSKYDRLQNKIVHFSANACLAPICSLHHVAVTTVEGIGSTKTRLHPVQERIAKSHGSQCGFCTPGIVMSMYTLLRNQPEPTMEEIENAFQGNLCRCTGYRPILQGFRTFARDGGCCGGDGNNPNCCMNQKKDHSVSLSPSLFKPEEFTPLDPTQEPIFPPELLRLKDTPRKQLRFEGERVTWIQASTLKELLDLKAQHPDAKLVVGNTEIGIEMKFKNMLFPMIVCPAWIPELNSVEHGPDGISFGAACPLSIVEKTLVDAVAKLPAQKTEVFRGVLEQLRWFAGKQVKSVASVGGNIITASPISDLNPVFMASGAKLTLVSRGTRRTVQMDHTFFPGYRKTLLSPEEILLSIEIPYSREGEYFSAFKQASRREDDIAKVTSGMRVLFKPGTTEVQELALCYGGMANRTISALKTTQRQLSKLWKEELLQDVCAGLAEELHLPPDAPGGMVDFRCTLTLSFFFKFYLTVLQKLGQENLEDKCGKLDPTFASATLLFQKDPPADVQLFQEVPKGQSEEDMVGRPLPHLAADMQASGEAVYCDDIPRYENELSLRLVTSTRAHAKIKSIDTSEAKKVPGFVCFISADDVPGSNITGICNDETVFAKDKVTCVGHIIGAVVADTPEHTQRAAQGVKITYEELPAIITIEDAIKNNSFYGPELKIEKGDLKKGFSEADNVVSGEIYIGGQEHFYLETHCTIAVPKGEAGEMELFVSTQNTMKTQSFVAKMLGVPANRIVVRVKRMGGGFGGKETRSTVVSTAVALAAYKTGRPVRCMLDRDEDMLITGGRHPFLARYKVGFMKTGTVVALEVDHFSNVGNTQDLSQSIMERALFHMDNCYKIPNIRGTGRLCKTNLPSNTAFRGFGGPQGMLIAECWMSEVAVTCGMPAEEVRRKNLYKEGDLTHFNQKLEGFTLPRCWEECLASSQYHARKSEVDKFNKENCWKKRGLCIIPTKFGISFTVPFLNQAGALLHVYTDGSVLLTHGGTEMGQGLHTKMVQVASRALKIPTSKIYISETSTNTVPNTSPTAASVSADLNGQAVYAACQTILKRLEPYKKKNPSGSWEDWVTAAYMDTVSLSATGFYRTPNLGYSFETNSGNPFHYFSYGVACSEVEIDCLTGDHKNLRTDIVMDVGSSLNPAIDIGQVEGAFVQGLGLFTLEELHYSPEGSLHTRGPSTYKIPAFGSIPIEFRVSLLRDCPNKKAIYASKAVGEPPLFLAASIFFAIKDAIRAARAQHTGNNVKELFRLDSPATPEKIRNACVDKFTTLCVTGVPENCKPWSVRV
# Procedure details: Xanthine oxidase inhibition (XOD), spectrophotometric
# Format: biochemical
# Condition notes: value in brackets
Consider the following compounds and their measured IC50 readings.

Compound: COc1cc(O)c2c(c1)C(=O)c1cc(C)cc(O)c1C2=O [Fraction C3]
IC50, µM: 158
--
Compound: Cc1cc(O)c2c(c1)C(=O)c1cccc(O)c1C2=O [Fraction C2, 1,8-dihydroxy-3-methylanthraquinone]
IC50, µM: 143

---

Consider the following molecules and their measured pIC50 readings.
# Assayed target: α-glucosidase (Saccharomyces cerevisiae, UniProt P53341)
# Construct: purchased Sigma-Aldrich
# Sequence (P53341 whole entry): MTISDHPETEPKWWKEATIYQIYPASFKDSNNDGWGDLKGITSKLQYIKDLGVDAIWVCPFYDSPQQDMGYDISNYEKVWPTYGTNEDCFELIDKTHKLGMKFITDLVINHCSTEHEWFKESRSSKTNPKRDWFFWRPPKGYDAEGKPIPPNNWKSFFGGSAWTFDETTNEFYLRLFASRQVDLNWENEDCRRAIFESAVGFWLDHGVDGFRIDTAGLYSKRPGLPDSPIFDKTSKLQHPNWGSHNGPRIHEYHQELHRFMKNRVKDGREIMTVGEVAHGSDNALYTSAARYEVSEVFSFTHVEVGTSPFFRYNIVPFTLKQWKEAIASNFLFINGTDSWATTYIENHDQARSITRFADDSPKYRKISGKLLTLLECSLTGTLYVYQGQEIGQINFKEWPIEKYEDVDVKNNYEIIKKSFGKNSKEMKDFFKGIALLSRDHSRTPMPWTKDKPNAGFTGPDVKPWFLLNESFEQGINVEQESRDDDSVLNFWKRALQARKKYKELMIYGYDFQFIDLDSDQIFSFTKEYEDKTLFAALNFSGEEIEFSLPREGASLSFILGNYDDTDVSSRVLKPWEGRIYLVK
# Procedure details: α-Glucosidase inhibition (AGI), pNPG substrate
# Assay type: biochemical
# Condition notes: pNPG
pIC50: −log10 of the molar value.

Molecule: Cc1cc(O)c2c(c1)C(=O)c1cccc(O)c1C2=O [Fraction C2, 1,8-dihydroxy-3-methylanthraquinone]
pIC50: 4.10
//
Molecule: COc1cc(O)c2c(c1)C(=O)c1cc(C)cc(O)c1C2=O [Fraction C3]
pIC50: 4.18

---

# Assayed target: xanthine oxidase (Homo sapiens)
# Procedure details: Xanthine oxidase inhibition (XOD), spectrophotometric
# Assay type: biochemical
pIC50: −log10 of the molar value.
Consider the following compounds and their measured pIC50 readings.
Metric: pIC50

Compound: Cc1cc(O)c2c(c1)C(=O)c1cccc(O)c1C2=O [Fraction C2, 1,8-dihydroxy-3-methylanthraquinone]
Metric: pIC50
Numeric readout: 3.84
--
Compound: COc1cc(O)c2c(c1)C(=O)c1cc(C)cc(O)c1C2=O [Fraction C3]
Metric: pIC50
Numeric readout: 3.80

---

Consider the following compounds and their measured IC50 readings.
# Assayed target: α-glucosidase (Saccharomyces cerevisiae, UniProt P53341)
# Construct: purchased Sigma-Aldrich
# Procedure details: α-Glucosidase inhibition (AGI), pNPG substrate
# Format: biochemical
# Condition notes: value in brackets

Compound: Cc1cc(O)c2c(c1)C(=O)c1cccc(O)c1C2=O [Fraction C2, 1,8-dihydroxy-3-methylanthraquinone]
IC50: 79.1 µM
//
Compound: COc1cc(O)c2c(c1)C(=O)c1cc(C)cc(O)c1C2=O
IC50: 66.5 µM

---

# Procedure details: DPPH radical scavenging assay
# Condition notes: value in brackets
Consider the following compounds and their measured IC50 readings.

Compound: Cc1cc(C(C)(C)C)c(O)c(C(C)(C)C)c1 [BHT, reference compound]
IC50 (µM): 87.1

Compound: Cc1cc(O)c2c(c1)C(=O)c1cccc(O)c1C2=O [Fraction C2, 1,8-dihydroxy-3-methylanthraquinone]
IC50 (µM): 39.4

Compound: COc1cc(O)c2c(c1)C(=O)c1cc(C)cc(O)c1C2=O
IC50 (µM): 42.3
